Values were extracted from PubChem BioAssay (NCI).

test system: EKVX NSCLC; test: NCI-60 one-dose screen, 48 h (100 = growth as untreated, 0 = no growth, -100 = all killed); settings: 10 µM unless noted
About 83,000 compounds went through this panel and 20% of them were active in at least one assay; those are over-represented in the sample as a whole.
Measured growth, listed per entry for reference.
Write it as a number; the unit % goes unstated.

[[record]]
molecule = "CCc1ccc(C2=C(O)C(=O)C(c3ccc(CC)cc3)=C(O)C2=O)cc1"
units = "%"
val = -15

[[record]]
molecule = "CC(=O)CC1CCCC1c1ccc2ccccc2c1 (stereo not drawn)"
units = "%"
val = 102

[[record]]
molecule = "COc1ncc(-c2ccc3nccc(-c4ccnnc4)c3c2)cc1NS(=O)(=O)c1ccc(F)cc1F"
units = "%"
val = -7.55

[[record]]
molecule = "Cc1cc(C)n(CC(=O)Nc2ccc(-c3nc4ccccc4s3)cc2)n1"
units = "%"
val = 108

[[record]]
molecule = "CCN(CC)CCOc1ccc(/C(=C(\\C)c2ccc(Cl)cc2)c2ccc(Cl)cc2)cc1"
units = "%"
val = 88.6

[[record]]
molecule = "COC(=O)[C@H](Cc1ccccc1)NC(=O)[C@@H](OC)[C@@H]1Cc2cc3cc(OC4CC(OC5CC(O)C(O)C(C)O5)C(O)C(C)O4)c(C)c(O)c3c(O)c2C(=O)[C@H]1OC1CC(OC2CC(OC3CC(C)(O)C(O)C(C)O3)C(O)C(C)O2)C(O)C(C)O1 (stereo partly drawn)"
units = "%"
val = -2.04


Returns the measured growth for the input molecule. Input: COc1ccc2c(CCCc3ccc(Cl)cc3Cl)c3[n+](cc2c1OC)CCc1cc2c(cc1-3)OCO2
23.1

# repeat for C[C@@H]1COC(Nc2ccc3ncnc(Nc4ccc(OCc5nccs5)c(Cl)c4)c3c2)=N1
32.2
